# Target of assay: Cannabinoid receptor 2 (Homo sapiens)
Rule: Ki below 200 nM gives MET, anything at or above gives NOT MET.

Molecule: CCCCCn1cc(C(=O)c2ccccc2)c(=O)c2ccccc21
Group: NOT MET
--
Molecule: CCCCCn1cc(C(=O)NC2CCCc3ccccc32)c(=O)c2ccccc21 (single isomer, unassigned; (+))
Group: MET
--
Molecule: CCCCCn1cc(C(=O)NC(C)C23CC4CC(CC(C4)C2)C3)c(=O)c2cc(Cl)ccc21 (racemic)
Group: NOT MET

[ask] Take the molecule CCCCCn1cc(C(=O)c2ccc3ccccc3c2)c(=O)c2ccccc21 and say whether its Ki is less than 200 nM.
[reply] NOT MET

[ask] Take the molecule CCCCCn1cc(C(=O)NC23CC4CC(C)(CC(C)(C4)C2)C3)c(=O)c2cc(Cl)ccc21 and say whether its Ki is less than 200 nM.
[reply] MET

[ask] Take the molecule CCCCCn1cc(C(=O)NC2CCCc3ccccc32)c(=O)c2cc(Cl)ccc21 (single isomer, unassigned; (+)) and say whether its Ki is less than 200 nM.
[reply] MET

[ask] Take the molecule O=C(NC12CC3CC(CC(C3)C1)C2)c1cn(CCN2CCOCC2)c2ccccc2c1=O and say whether its Ki is less than 200 nM.
[reply] MET

[ask] Take the molecule O=C(c1cn(Cc2ccccc2)c2ccccc2c1=O)c1cccc2ccccc12 and say whether its Ki is less than 200 nM.
[reply] NOT MET

---

// reported Ki per item
# Target of assay: Cannabinoid receptor 2 (Homo sapiens)
Please respond with the number in µM and leave the unit unwritten.

Here is how some molecules turned out for Ki.
Molecule: CCCCCn1c(C)c(C(=O)NC(C)c2ccccc2)c(=O)c2ccccc21 (single isomer, unassigned; (-))
Target of assay: Cannabinoid receptor 2 (Homo sapiens)
Unit of measure: µM
Ki: 0.663
--
Molecule: CCCCCn1cc(C(=O)NC2CCCc3ccccc32)c(=O)c2cc(Cl)ccc21 (racemic)
Target of assay: Cannabinoid receptor 2 (Homo sapiens)
Unit of measure: µM
Ki: 0.506
--
Molecule: CCCCCn1c(-c2ccccc2)c(C(=O)NC23CC4CC(C)(CC(C)(C4)C2)C3)c(=O)c2ccccc21
Target of assay: Cannabinoid receptor 2 (Homo sapiens)
Unit of measure: µM
Ki: 0.119
--
Molecule: CCCCCn1c(-c2ccccc2)c(C(=O)NC23CC4CC(CC(C4)C2)C3)c(=O)c2ccccc21
Target of assay: Cannabinoid receptor 2 (Homo sapiens)
Unit of measure: µM
Ki: 0.338
--
Molecule: CCCCCn1cc(C(=O)NC(C)C23CC4CC(CC(C4)C2)C3)c(=O)c2ccccc21 (stereo in doubt; 24)
Target of assay: Cannabinoid receptor 2 (Homo sapiens)
Unit of measure: µM
Ki: 0.014
--
Molecule: CC12CC3CC(C)(C1)CC(NC(=O)c1cn(CCc4ccccc4)c4ccccc4c1=O)(C3)C2
Target of assay: Cannabinoid receptor 2 (Homo sapiens)
Unit of measure: µM
Ki: 0.333

Continue with the molecule presented below.
With Cannabinoid receptor 2 (Homo sapiens) as the test system, CCCCn1cc(C(=O)c2cccc3ccccc23)c(=O)c2ccccc21 showed Ki of 1.55

---

# Target of assay: Cannabinoid receptor 2 (Homo sapiens)
# Protocol text: Displacement of [3H]CP-55940 from human CB2 receptor expressed in CHO cells
# Format: cell-based
# Design: concentration or dose not given beside the values
Rule: Activity below 90% gives yes, anything at or above gives no.

Some entries whose results are on file:
Compound: CCCCCn1cc(C(=O)NC23CC4CC(C)(CC(C)(C4)C2)C3)c(=O)c2cnccc21
Group: no

Compound: CCCCCn1cc(C(=O)NC(C)C23CC4CC(CC(C4)C2)C3)c(=O)c2ccccc21 (racemic)
Group: no

Compound: O=C(c1c[nH]c2ccccc2c1=O)c1cccc2ccccc12
Group: yes

Compound: CCCCCn1c(-c2ccccc2)c(C(=O)NC23CC4CC(CC(C4)C2)C3)c(=O)c2ccccc21
Group: no

[ask] Take the compound CCCCCCn1cc(C(=O)c2ccc(OC)cc2)c(=O)c2ccccc21 and say whether its Activity is less than 90%.
[reply] yes

[ask] Take the compound CCCCCn1cc(C(=O)NC(C)C23CC4CC(CC(C4)C2)C3)c(=O)c2ccc(Cl)cc21 (single isomer, unassigned; (+)) and say whether its Activity is less than 90%.
[reply] no

[ask] Take the compound CCCCCn1cc(C(=O)c2ccc(OC)cc2)c(=O)c2ccccc21 and say whether its Activity is less than 90%.
[reply] yes

[ask] Take the compound CCCCCn1cc(CNCC2CCCc3ccccc32)c(=O)c2ccccc21 (racemic) and say whether its Activity is less than 90%.
[reply] yes

---

# Target of assay: Cannabinoid receptor 2 (Homo sapiens, UniProt P34972)
# Sequence (P34972 whole entry): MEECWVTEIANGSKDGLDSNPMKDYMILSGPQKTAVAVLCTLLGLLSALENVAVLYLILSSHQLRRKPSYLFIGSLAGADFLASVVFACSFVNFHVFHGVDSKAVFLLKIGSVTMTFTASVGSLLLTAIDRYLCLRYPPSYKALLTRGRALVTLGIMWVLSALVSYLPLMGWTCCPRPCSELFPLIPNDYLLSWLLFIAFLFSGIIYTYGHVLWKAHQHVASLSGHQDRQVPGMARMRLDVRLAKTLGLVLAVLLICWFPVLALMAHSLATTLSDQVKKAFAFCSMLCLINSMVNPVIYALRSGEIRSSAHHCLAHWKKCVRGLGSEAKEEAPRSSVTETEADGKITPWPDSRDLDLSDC
# Protocol text: Displacement of [3H]CP-55940 from human CB2 receptor expressed in CHO cells
# Assay type: cell-based
# Set-up: concentration or dose not given beside the values
Activity vs 90%: at or above is Fulfilled, below is Not fulfilled.

Some entries whose results are on file:
Molecule: CCCCCn1cc(C(=O)NC23CC4CC(C)(CC(C)(C4)C2)C3)c(=O)c2cc(Cl)ccc21
Group: Not fulfilled
//
Molecule: O=C(NC12CC3CC(CC(C3)C1)C2)c1cn(CCN2CCOCC2)c2ccccc2c1=O
Group: Fulfilled
//
Molecule: CCCCCn1cc(C(=O)NC(C)C23CC4CC(CC(C4)C2)C3)c(=O)c2cc(Cl)ccc21 (single isomer, unassigned; (+))
Group: Fulfilled
//
Molecule: CC12CC3CC(C)(C1)CC(NC(=O)c1cn(CCc4ccccc4)c4ccccc4c1=O)(C3)C2
Group: Fulfilled

[ask] Determine whether measured Activity meets or exceeds 90% for CCCCCn1cc(C(=O)c2ccc3cc(OC)ccc3c2)c(=O)c2ccccc21
[reply] Not fulfilled

[ask] Determine whether measured Activity meets or exceeds 90% for CCCCCn1cc(NC(=O)C23CC4CC(CC(C4)C2)C3)c(=O)c2ccccc21
[reply] Fulfilled

---

# Target of assay: Cannabinoid receptor 2 (Homo sapiens)
Measure: Ki (µM)
Please respond with the number in µM and leave the unit unwritten.

Compound: CCCCCn1cc(C(=O)NC(C)C23CC4CC(CC(C4)C2)C3)c(=O)c2cc(Cl)ccc21 (single isomer, unassigned; (+))
Numeric readout: 0.144
//
Compound: O=C(c1cn(Cc2ccc(Cl)cc2)c2ccccc2c1=O)c1cccc2ccccc12
Numeric readout: 1.12
//
Compound: O=C(c1cn(Cc2ccc(Br)cc2)c2ccccc2c1=O)c1cccc2ccccc12
Numeric readout: 0.966
//
Compound: CCCCCn1cc(NC(=O)c2cccc3ccccc23)c(=O)c2ccccc21
Numeric readout: 0.265
//
Compound: CCCCCn1nc(C(=O)NC23CC4CC(C)(CC(C)(C4)C2)C3)c(=O)c2ccccc21
Numeric readout: 0.093
//
Compound: O=C(c1cn(CCC2CCCCC2)c2ccccc2c1=O)c1cccc2ccccc12
Numeric readout: 1.67
//
Compound: CCCCCn1cc(C(=O)NC(C)C23CC4CC(CC(C4)C2)C3)c(=O)c2ccccc21 (single isomer, unassigned; (+))
Numeric readout: 0.202
//
Compound: CCCCCn1cc(C(=O)NCC23CC4CC(CC(C4)C2)C3)c(=O)c2ccccc21
Numeric readout: 0.0506

With Cannabinoid receptor 2 (Homo sapiens) as the test system, CCCCCn1cc(C(=O)NC23CC4CC(C)(CC(C)(C4)C2)C3)c(=S)c2ccccc21 showed Ki of 0.0182

With Cannabinoid receptor 2 (Homo sapiens) as the test system, CCCCCn1cc(NC(=O)C23CC4CC(CC(C4)C2)C3)c(=O)c2ccccc21 showed Ki of 0.0255

---

# Target of assay: UniProt P34972
# Protocol text: Displacement of [3H]CP-55940 from human CB2 receptor expressed in CHO cells
# Type: cell-based
# Design: concentration or dose not given beside the values
// reported Activity per item
Please respond with the number in % and leave the unit unwritten.

Compound: CCCCCn1cc(CNC23CC4CC(CC(C4)C2)C3)c(=O)c2ccccc21
Activity [%]: 81.3

Compound: CCCCCn1cc(NC(=O)c2cccc3ccccc23)c(=O)c2ccccc21
Activity [%]: 97.4

Compound: CCCCCn1cc(C(=O)NC23CC4CC(C)(CC(C)(C4)C2)C3)c(=S)c2ccccc21
Activity [%]: 95.7

Summary for this compound, CCCCCn1cc(C(=O)c2ccc3c(c2)COC3)c(=O)c2ccccc21 : Activity is 70.2

Summary for this compound, CCCCCn1cc(C(=O)NC2CCCc3ccccc32)c(=O)c2cc(Cl)ccc21 (single isomer, unassigned; (+)) : Activity is 92.8

Summary for this compound, CCCCCn1c(C)c(C(=O)NC23CC4CC(C)(CC(C)(C4)C2)C3)c(=O)c2ccccc21 : Activity is 96.7

Summary for this compound, CC12CC3CC(C)(C1)CC(NC(=O)c1cn(CCC4CCCCC4)c4ccccc4c1=O)(C3)C2 : Activity is 38.8

Summary for this compound, CCCCCn1cc(C(=O)NC(C)C23CC4CC(CC(C4)C2)C3)c(=O)c2ccc(Cl)cc21 (single isomer, unassigned; (-)) : Activity is 102

Summary for this compound, CC12CC3CC(C)(C1)CC(NC(=O)c1cn(CCCc4ccccc4)c4ccccc4c1=O)(C3)C2 : Activity is 101

Summary for this compound, CCCCCn1cc(C(=O)NC23CC4CC(C)(CC(C)(C4)C2)C3)c(=O)c2ncccc21 : Activity is 93.4

Summary for this compound, CCCCCn1cc(C(=O)NC23CC4CC(C)(CC(C)(C4)C2)C3)c(=O)c2ccc(Cl)cc21 : Activity is 106
